Biological target: kinases (Homo sapiens, UniProt P00519, T315I)
Construct: purchased Eurofins/DiscoveRx; host or cells: E. coli BL21-derived host (T7 phage display) for most kinases; HEK-293 for the rest
Experiment: KINOMEscan kinase binding assay (Eurofins/DiscoveRx), % Ctrl
Conditions: 1 μM; ABL1(T315I)-phosphorylated
Protocol: Kinase binding assays were performed at Eurofins/DiscoveRx using the general KINOMEscan Protocol (Fabian, M. A. et al., “A small molecule-kinase interaction map for clinical kinase inhibitors,” Nat. Biotechnol. 2005, 23(3):329-36). For most assays, kinase-tagged T7 phage strains were prepared in an E. coli host derived from the BL21 strain. […] The kinase concentration in the eluates was measured by qPCR. […]
endpoint: % Ctrl, ABL1(T315I)-phosphorylated (% Ctrl)

| smiles.structure | assayed.system | endpoint.unit | observed.measurement |
| --- | --- | --- | --- |
| Cc1cc2c([nH]1)/C=C1\C(=O)Nc3cc(Cl)c(cc31)OCCO[C@@H](C(=O)NC1CNC1)CN(C)C2=O | kinases (Homo sapiens, UniProt P00519, T315I) | % Ctrl | 78 |

1: Cc1cc2c([nH]1)/C=C1\C(=O)Nc3cc(Cl)c(cc31)OCCO[C@@H](C(=O)NC1CCNCC1)CN(C)C2=O
2: Cc1cc2c([nH]1)/C=C1\C(=O)Nc3cc(Cl)c(cc31)OCCOCCN(C)C2=O
3: Cc1cc2c([nH]1)/C=C1\C(=O)Nc3cnc(nc31)N(C)CCCOCCN(C)C2=O
Data request: # sort list by recorded % Ctrl, ABL1(T315I)-phosphorylated, greatest to least To answer, write out the labels according to the requested order.
Data returned: 3, 1, 2
(3: 100 % Ctrl, 1: 46 % Ctrl, 2: 1.1 % Ctrl)

----------
Target: kinases (Homo sapiens, UniProt P10721, T670I/V559D)
Construct: purchased Eurofins/DiscoveRx; host or cells: E. coli BL21-derived host (T7 phage display) for most kinases; HEK-293 for the rest
Sequence (P10721 26-976 V559D/T670I): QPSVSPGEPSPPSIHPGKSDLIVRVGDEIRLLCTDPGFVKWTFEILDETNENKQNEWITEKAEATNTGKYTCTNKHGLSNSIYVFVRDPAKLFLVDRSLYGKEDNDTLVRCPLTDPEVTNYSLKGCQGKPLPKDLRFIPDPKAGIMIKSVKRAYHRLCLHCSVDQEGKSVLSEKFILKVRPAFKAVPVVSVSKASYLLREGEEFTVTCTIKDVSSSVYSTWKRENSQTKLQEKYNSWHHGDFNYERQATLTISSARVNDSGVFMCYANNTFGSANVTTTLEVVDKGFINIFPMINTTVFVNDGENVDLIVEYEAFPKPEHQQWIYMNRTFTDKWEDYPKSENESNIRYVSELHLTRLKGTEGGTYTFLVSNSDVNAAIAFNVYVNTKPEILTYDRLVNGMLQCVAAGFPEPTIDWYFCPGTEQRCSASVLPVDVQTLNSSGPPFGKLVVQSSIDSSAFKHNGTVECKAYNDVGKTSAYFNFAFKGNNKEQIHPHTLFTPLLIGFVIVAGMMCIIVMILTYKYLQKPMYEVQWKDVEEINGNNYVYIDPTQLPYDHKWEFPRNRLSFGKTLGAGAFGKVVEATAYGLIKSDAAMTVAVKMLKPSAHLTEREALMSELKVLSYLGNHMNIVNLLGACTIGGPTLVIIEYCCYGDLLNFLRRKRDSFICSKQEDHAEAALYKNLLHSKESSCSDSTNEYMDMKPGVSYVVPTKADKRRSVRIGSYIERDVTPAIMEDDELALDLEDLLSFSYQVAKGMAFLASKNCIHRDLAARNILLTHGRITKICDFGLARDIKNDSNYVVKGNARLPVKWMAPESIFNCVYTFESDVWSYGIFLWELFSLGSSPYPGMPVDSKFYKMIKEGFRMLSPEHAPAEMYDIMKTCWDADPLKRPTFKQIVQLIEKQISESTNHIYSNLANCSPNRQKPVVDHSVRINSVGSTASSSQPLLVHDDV
Test: KINOMEscan kinase binding assay (Eurofins/DiscoveRx), % Ctrl
Details: target KIT(V559D, T670I); 1 μM
endpoint: % Ctrl, KIT(V559D, T670I) (% Ctrl)

Use the examples below as a reference point.
| smiles.structure | % Ctrl, KIT(V559D, T670I) / % Ctrl |
| --- | --- |
| Cc1cc2c([nH]1)/C=C1\C(=O)Nc3ccc(cc31)-c1c(noc1C)CNCCN(C)C2=O | 69 |
| Cc1cc2c([nH]1)/C=C1\C(=O)Nc3cnc(cc31)-c1cn[nH]c1CNCCN(C)C2=O | 50 |
| CN1CCSCCOc2cc3c(cc2Cl)NC(=O)/C3=C\c2[nH]ccc2C1=O | 0.3 |
| Cc1cc2c([nH]1)/C=C1\C(=O)Nc3cc(Cl)c(cc31)OCCO[C@@H](C(=O)N1CCN(C)CC1)CN(C)C2=O | 73 |
| Cc1nn(C)c2c1-c1ccc3c(c1)/C(=C/c1[nH]ccc1C(=O)N(C)CCCO2)C(=O)N3 | 97 |

1: Cc1cc2c([nH]1)/C=C1\C(=O)Nc3ccc(cc31)-c1c(C)nn(C)c1COCCN(C)C2=O
2: CN1CCOCCOc2cc3c(cc2Cl)NC(=O)/C3=C\c2[nH]ccc2C1=O
Data request: Response body: label of entry with the larger % Ctrl, KIT(V559D, T670I); valid values 1 , 2 . Response format: the label of the selected entry.
Data returned: 1
(1: 75 % Ctrl, 2: 1.6 % Ctrl)

Origin of the recorded values: patent US20230257396A1
